Target: Aromatase [1-48] (Homo sapiens, UniProt P11511)
Sequence (P11511 whole entry): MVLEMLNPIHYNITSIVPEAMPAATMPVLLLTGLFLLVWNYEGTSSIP
observable: pIC50
As a rule, pIC50 stands for the negative log10 of the concentration, concentration in M.

Exercise: Specify pIC50 for Oc1ccc(C2CC(n3ccnc3)c3ccc(O)cc3O2)cc1 (configuration not stated) and stop.
Solution: 7.11

Exercise: Specify pIC50 for COc1ccc2c(c1)OC(c1cccc(O)c1)CC2n1ccnc1 (configuration not stated) and stop.
Solution: 6.89
